Attribution: PubChem BioAssay (NCI)

- Test system: HT29 colon
- Method description: NCI tumour cell line growth inhibition, 48 h
Quantity: TGI

Inquiry: Quick check: TGI on HT29 colon, item CC(O)c1cccc(NCc2c3ccccc3c(=O)n3c2oc2ccccc23)c1 (stereo not given) ?
Reply text: > 100 µM

Inquiry: # get_value(readout= TGI, system= HT29 colon) for COc1cc(OCc2ccc3nc(-c4ccccc4)c(Cl)nc3c2)cc(OC)c1OC
Reply text: > 100 µM

Inquiry: Request body: readout TGI, system HT29 colon, query CC(=O)c1cccc(N2COC(C)(C)c3nc4ccccc4n3C2)c1 . Return the value.
Reply text: > 100 µM

Inquiry: Could you share what TGI was measured for COc1cc(S(=O)(=O)Nc2nc(-c3ccc(N4C(=O)CSC4c4cccs4)cc3)cs2)ccc1Cl (stereo not given) , tested on HT29 colon?
Reply text: > 100 µM

Inquiry: Report TGI for COc1ccc(NC(=O)C(=O)C(C(=O)c2ccccc2)C2OC(=O)c3ccccc32)c([N+](=O)[O-])c1 (stereo not given) tested on HT29 colon.
Reply text: > 100 µM

Inquiry: Record C/C1=C/C(C)CC(C)OC(=O)C(C)NC(=O)C(Cc2ccc(O)c(I)c2)N(C)C(=O)CNC(=O)C(C)C1 (stereo not given) : what is its TGI with HT29 colon?
Reply text: > 100 µM

Inquiry: Hi! What's the reported TGI for O=C1c2cccc3cc([N+](=O)[O-])cc(c23)C(=O)N1CCCN1CCN(CCCNc2ccc3ncn4c5ccccc5c(=O)c2c34)CC1 on HT29 colon?
Reply text: < 0.005 µM

Inquiry: Recall the recorded TGI for O=c1c2cc(Cl)ccc2oc2ccc(OCCCCCN3CCCCC3)cc12 with HT29 colon and state it.
Reply text: 3.31 µM

Inquiry: Give TGI (HT29 colon) of the following compound: O=c1c2c(nc3n1CCS3)[nH]c1ccccc12
Reply text: > 100 µM

Inquiry: // lookup TGI | system=HT29 colon | key= CCOC(=O)C(SCCO)C(C(=O)OCC)n1cnc2c(N)ncnc21 (stereo not given)
Reply text: 25.4 µM

----------
- Tested on: HOP-62 NSCLC
- Method description: NCI tumour cell line growth inhibition, 48 h
Where a SMILES comes first, the peptide text is derived from it. The star is where a group is joined. Boc = CC(C)(C)OC(=O)*; OBn = c1ccc(CO*)cc1
Quantity: TGI

Inquiry: Quick one: TGI of CCN1CCN(C(=O)[C@]23CC[C@@H](C)[C@H](C)[C@@H]2C2=CC[C@@H]4[C@@]5(C)C/C(=C/c6ccncc6)C(=O)C(C)(C)[C@@H]5CC[C@@]4(C)[C@]2(C)CC3)CC1 ?
Reply text: 5.75 µM

Inquiry: Could you share which TGI value was measured for CC(=O)OCC1OC(N2C(=O)C(=O)c3cc(C)ccc32)C(OC(C)=O)C(OC(C)=O)C1OC(C)=O (stereo not drawn) ?
Reply text: > 100 µM

Inquiry: What value of TGI has been reported for the following compound? COC(=O)CCc1cc(OC)c2c(c1)C(C(=O)OC)C(c1ccc(OC)c(OC)c1)O2 (stereo not drawn)
Reply text: > 100 µM

Inquiry: Please give the measured TGI for this compound: O=C1c2ccccc2-c2cccc3ccc(Cc4ccc5ccccc5c4)c1c23
Reply text: > 100 µM

Inquiry: What value of measured TGI is listed for COc1ccc(NC(=O)C(=O)C(C(=O)c2ccccc2)C2OC(=O)c3ccccc32)c([N+](=O)[O-])c1 (stereo not drawn) ?
Reply text: > 100 µM

Inquiry: Which measured TGI value corresponds to CC12CCC3[C@@H](CC3(C)C)C(O)(CCC1=O)C2 (stereo partly drawn) ?
Reply text: > 100 µM

Inquiry: Quick one: TGI for CN(C)c1ccc(/C=N\NC(=O)c2ccccc2Nc2ccccc2C(=O)N/N=C/c2ccc(N(C)C)cc2)cc1 ?
Reply text: > 100 µM

Inquiry: Could you share which TGI value was measured for Cc1oc2c(c1C)S(=O)(=O)C(C#N)C(c1ccccc1)N2 (stereo not drawn) ?
Reply text: > 100 µM

Inquiry: Which value of TGI has been reported for CCCCOC(=O)NC(=O)c1cn(CCCOC(=O)CCCCCCCCC(=O)OCCCn2cc(C(=O)NC(=O)OCCCC)c(=O)[nH]c2=O)c(=O)[nH]c1=O in the records?
Reply text: > 100 µM

Inquiry: Any idea what TGI was measured for CC(C)(C)[Si](C)(C)O[C@@H](C(=O)OC1C=CCCC1)[C@@H](NC(=O)c1ccccc1)c1ccccc1 (stereo partly drawn) ?
Reply text: > 100 µM

Inquiry: State the recorded TGI for this entry: COc1cc(/C=C(\C#N)C(=O)c2ccccc2)ccc1OCc1ccccc1
Reply text: > 100 µM

Inquiry: Can you look up the measured TGI of O=c1c(Oc2ccc(F)cc2F)cc2cnc(NC3CCOCC3)nc2n1C1CCS(=O)(=O)CC1 for me?
Reply text: > 25 µM

Inquiry: Entry COc1cc(OC)cc(C2CC(=O)Nc3c2c(C)nn3-c2nc3ccccc3[nH]2)c1 (stereo not drawn) has what TGI?
Reply text: 6.62 µM

Inquiry: Suppose we examine the compound COc1c2nc(CCl)[nH]c(=O)c2c(OC)c2nc(CCl)[nH]c(=O)c12 ; what TGI value has been reported?
Reply text: > 100 µM

Inquiry: Record request: TGI value, item COc1cccc(OC/C(N=Cc2cccnc2)=N/NC(=O)c2ccncc2)c1
Reply text: > 100 µM

Inquiry: Request the reported TGI associated with O=C1NC(=O)C(Cc2ccccc2)(c2cccnc2)N1 (stereo not drawn)
Reply text: > 100 µM

Inquiry: Give its TGI value. Item: Cc1ccc(-n2cnc3c(N)nc(N)nc32)cc1
Reply text: > 100 µM

Inquiry: Recorded TGI of O=S(=O)(NC1=NCCN1C(=S)SN1CCn2c1nsc2=S)c1ccc(Br)cc1 , please.
Reply text: > 100 µM

Inquiry: Look up TGI for this compound: COc1cc(OCc2ccc3nc(-c4ccccc4)c(Cl)nc3c2)cc(OC)c1OC
Reply text: > 100 µM

Inquiry: What value of measured TGI is listed for CC(C)C(NC(=O)C(Cc1ccccc1)NC(=O)OC(C)(C)C)C(=O)NCC(=O)OCc1ccccc1 (stereo not drawn) (Boc-Phe-Val-Gly-OBn; configuration not given here) ?
Reply text: 35.6 µM

Inquiry: Value lookup for TGI; key = C/C1=C/C(C)CC(C)OC(=O)C(C)NC(=O)C(Cc2ccc(O)c(I)c2)N(C)C(=O)CNC(=O)C(C)C1 (stereo not drawn)
Reply text: < 0.01 µM

Inquiry: I am curious: what TGI value has been reported for O=C1CC(CC(O)[C@@H]2CCCC[C@@H]2O)CC(=O)N1c1ccccc1 (stereo partly drawn) ?
Reply text: > 100 µM

Inquiry: Param item = COc1ccc(CN(C)c2ccc(CO)c(Cl)c2)cc1 ; retrieve measured TGI.
Reply text: > 100 µM

Inquiry: Requested field: TGI. Item: NC(=O)C(=Cc1ccc(C(O)P(=O)(O)O)cc1)C(N)=O (stereo not drawn)
Reply text: > 100 µM

Inquiry: // lookup TGI for O=c1[nH]n(Cc2ccccc2Cl)c2ccc([N+](=O)[O-])cc12
Reply text: > 100 µM

Inquiry: Which TGI is reported for this compound? CCNC(=O)CCN(C(=O)O)S(=O)(=O)c1ccc(NC(=O)c2ccccc2)cc1
Reply text: > 100 µM

Inquiry: Field request: TGI | item: CCN(CC)C(=C(C(Cl)=C(Cl)Cl)[N+](=O)[O-])N(CC)CC
Reply text: > 100 µM

Inquiry: For the compound CC(=O)CC(=O)Nc1ccc2ccccc2c1 , what TGI is on record?
Reply text: > 100 µM

Inquiry: Tell me the measured TGI of CCN(CC)C1Oc2cc3c(cc2C(c2ccc(OC)cc2)C1C)OCO3 (stereo not drawn) , please.
Reply text: 54.9 µM

Inquiry: # input compound: CN1CCN(CCCN)CC1 ; wanted: its TGI
Reply text: > 100 µM

Inquiry: I would be grateful if you could share the reported TGI for CC12OC(c3ccccc3)=CC(c3ccc(Cl)cc3)=C1C(c1ccccc1)=CC2=O (stereo not drawn) .
Reply text: > 100 µM

Inquiry: Which TGI is reported for this compound? COc1ccc2nc3c([N+](=O)[O-])ccc4c3c(c2c1)N=CN4CCCN(C)C
Reply text: 15.1 µM

Inquiry: # TGI lookup, item O=[N+]([O-])c1cccc(C2N3CCCCC3[C@@H]3c4[nH]c5ccccc5c4CCN23)c1 (stereo partly drawn)
Reply text: 30.2 µM

Inquiry: Need TGI, item CC(C)c1ccc(C(=O)Nc2nc3ccc(O)cc3s2)cc1
Reply text: > 100 µM

Inquiry: What TGI value was documented for this compound, CCOC(=O)C(C(=O)OCC)=C1NC2(c3ccccc3Nc3ccc(C)cc32)C(C#N)S1 (stereo not drawn) ?
Reply text: 33.7 µM

Inquiry: Consider the compound COc1ccc([N+]2=NC(c3ccc([N+](=O)[O-])cc3)=NN(c3ccccc3)C2)cc1 and give its measured TGI.
Reply text: > 100 µM

Inquiry: Field request: TGI | item: Cc1cc(C)nc(NS(=O)(=O)c2ccc(Nc3c4ccccc4nc4c(C(=O)NNCCO)cccc34)cc2)n1
Reply text: > 100 µM

Inquiry: Requested read-out: TGI. Entry: CC[C@@H]1OC2(C)CC(S(=O)(=O)c3ccccc3O)CC1O2 (stereo partly drawn)
Reply text: > 100 µM
